Value source: the RNAGym collection of RNA variant scans (doi:10.7554/elife.90254)

Assignment: determine reported self-cleavage for the given variants.
B1: OR4K15 (parent)
chain: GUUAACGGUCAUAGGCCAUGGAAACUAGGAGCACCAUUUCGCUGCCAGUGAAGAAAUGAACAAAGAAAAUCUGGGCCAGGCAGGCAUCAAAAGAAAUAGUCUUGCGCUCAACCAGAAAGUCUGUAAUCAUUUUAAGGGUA

Variants of: B1
Test: self-cleavage, relative activity (ratio to wild type); higher = more cleavage; in vitro, sequencing; the parent is a self-cleaving ribozyme
Lab note: write the figure by itself, no unit.

Kindly indicate its recorded self-cleavage. Item: GUUGACGGUCAUAGGCCAUGGAAACUAGGAGCACCAUUUCGCUGCCAGUGAAGAAAUGAACAAAGAAAAUCUGGGCCAGGCAGGCAUCAAAAGAAAUAGUCUUGCGCUCAACCAGAAAGUAUGUAAUCAUUUUAAGGGUA [A4G C121A]
2.03

Kindly indicate its recorded self-cleavage. Item: GUUAACGGUCAUAGGCCAUGGAAACUAGGAGCACCAUUUCGCUGCCAGUGAAGAAAUGAACAAAGAAAAUCUGGGCCAGGCAGGCAUCAAAAGAAAUAGUCUUGCGCUCAACCAGAAAGCCUGUAAUCAUUUUACGGGUA [U120C A135C]
1.51

Kindly indicate its recorded self-cleavage. Item: GUUAACGGUCAUAGGCCAUGGAAACUGGGAGCACCAUUUCGCUGCCAGUGAAGAAAUGAACAAAGGAAAUCUGGGCCAGGCAGGCAUCAAAAGAAAUAGUCUUGCGCUCAACCAGAAAGUCUGUAAUCAUUUUAAGGGUA [A27G A66G]
0.7

Kindly indicate its recorded self-cleavage. Item: GUUAACAGUCAUAGGCCAUGGAAACUAGGAGCACCAUUUCGCUGCCAGUGAAGAAAUGAACAAAGAAAAUCUGGGCCAGGCAGGCAUCAAAUGAAAUAGUCUUGCGCUCAACCAGAAAGUCUGUAAUCAUUUUAAGGGUA [G7A A92U]
1.72

Kindly indicate its recorded self-cleavage. Item: GUUAACGGUCAUAGGCCAUGGAAAUUAGGAGCACCAUUUCGCUGCCAGUGAAGAAAUGAACAAAGAAAAUCUGGGCCAGGCAGGCAUCAAAAGAAAUAGUCAUGCGCUCAACCAGAAAGUCUGUAAUCAUUUUAAGGGUA [C25U U102A]
0.79

Kindly indicate its recorded self-cleavage. Item: GUUAACGGUCAUAGGCCAUGGAAACUAGGAGCACCAUUUCGCUGCCAGUGGAGAAAUGAACAAAGAAAAUCUGGGCCAGGCAGGCAUCAAAAGAAAUAGUCUUGCGCUCAACCAGAAAGUCUGUAAUCAGUUUAAGGGUA [A51G U130G]
0.67

Kindly indicate its recorded self-cleavage. Item: GUUAACGGUCAUAGGCCAUGGAAACUAGGAGCACCAUAUCGCUGCCAGUGAAGAAAUGAACAAAGAAAAUCUGGGCCAGGCAGGCAUCAAAAGAAACAGUCUUGCGCUCAACCAGAAAGUCUGUAAUCAUUUUAAGGGUA [U38A U97C]
1.67

Kindly indicate its recorded self-cleavage. Item: GUUAACGGUCAUAGGCCAUGGAAACUAGGAGCACCAUUUCGCUGCCAGUGAAGAAAUGAACAAAGAAAAUCUGGGCCAGGCAGGCAUCAAAAGAAAUAGUCUUGCGCUCAACCAGAAAGUCUGUAAUAAUUUUGAGGGUA [C128A A134G]
1.63

Kindly indicate its recorded self-cleavage. Item: GUUAACGGUUAUAGGCCAUGGAAACUAGGAGCACCAUUUCGCUGCCGGUGAAGAAAUGAACAAAGAAAAUCUGGGCCAGGCAGGCAUCAAAAGAAAUAGUCUUGCGCUCAACCAGAAAGUCUGUAAUCAUUUUAAGGGUA [C10U A47G]
0

Kindly indicate its recorded self-cleavage. Item: GUUAACGGUCAUAGGCCGUGGAAACUAGGAGCACCAUUUCGCUGCCAGUGAAGAAAUGAACAAAGAAAAUCUGGGCCAGGCAGGCGUCAAAAGAAAUAGUCUUGCGCUCAACCAGAAAGUCUGUAAUCAUUUUAAGGGUA [A18G A86G]
1.99

Kindly indicate its recorded self-cleavage. Item: GUUAACGGUCAUAGGCCAUGGAAACUAGGAGCGCCAUUUCGCUGCCAGUGAAGAAAUGAACAAAGAAAAUCUGGGCCAGGCAGGCACCAAAAGAAAUAGUCUUGCGCUCAACCAGAAAGUCUGUAAUCAUUUUAAGGGUA [A33G U87C]
0.7
